Biological target: T1, IL1RAPL1 (Mus musculus (Mouse), UniProt P59823)
T1 chain: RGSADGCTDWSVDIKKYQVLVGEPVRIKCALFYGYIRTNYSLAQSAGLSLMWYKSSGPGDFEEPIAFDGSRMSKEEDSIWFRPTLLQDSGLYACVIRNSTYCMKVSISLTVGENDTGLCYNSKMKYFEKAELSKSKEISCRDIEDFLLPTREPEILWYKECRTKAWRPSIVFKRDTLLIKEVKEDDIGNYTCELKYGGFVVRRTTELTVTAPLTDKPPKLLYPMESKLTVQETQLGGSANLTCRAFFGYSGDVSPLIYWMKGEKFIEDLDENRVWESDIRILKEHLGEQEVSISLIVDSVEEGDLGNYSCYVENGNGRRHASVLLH
Assay: SPR equilibrium 25C, PTPRD Ig1-Fn1 analyte
PROPERTY_MEASURED: pKd
# pKd = -log10(concentration in molar units)

Find the recorded pKd belonging to PTPRD_A9B1 (protein) ETPPRFTRTPVDQTGVSGGVASFICQATGDPRPKIVWNKKGKKVSNQRFEVIEFDDGSGSVLRIQPLRTPRDEAIYECVASNNVGEISVSTRLTVLREDQIPRGFPTIDMGPQLKVVERTRTATMLCAASGNPDPEITWFKDFLPVDTSNNNGRIKQLRSESIGGTPIRGALQIEQSEESDQGKYECVATNSAGTRYSAPANLYVRELREVRRVPPRFSIPPTNHEIMPGGSVNITCVAVGSPMPYVKWMLGAEDLTPEDDMPIGRNVLELNDVRQSANYTCVAMSTLGVIEAIAQITVKA and report it.
6.82

Tell me the measured pKd of PTPRD_A6B1 (protein) ETPPRFTRTPVDQTGVSGGVASFICQATGDPRPKIVWNKKGKKVSNQRFEVIEFDDGSGSVLRIQPLRTPRDEAIYECVASNNVGEISVSTRLTVLREDQIPRGFPTIDMGPQLKVVERTRTATMLCAASGNPDPEITWFKDFLPVDTSNNNGRIKQLRSGGTPIRGALQIEQSEESDQGKYECVATNSAGTRYSAPANLYVRELREVRRVPPRFSIPPTNHEIMPGGSVNITCVAVGSPMPYVKWMLGAEDLTPEDDMPIGRNVLELNDVRQSANYTCVAMSTLGVIEAIAQITVKA , please.
6.09

Source: paper PMC4423211
